Biological target: DPP4 (Homo sapiens, UniProt P27487)
Sequence (P27487 whole entry): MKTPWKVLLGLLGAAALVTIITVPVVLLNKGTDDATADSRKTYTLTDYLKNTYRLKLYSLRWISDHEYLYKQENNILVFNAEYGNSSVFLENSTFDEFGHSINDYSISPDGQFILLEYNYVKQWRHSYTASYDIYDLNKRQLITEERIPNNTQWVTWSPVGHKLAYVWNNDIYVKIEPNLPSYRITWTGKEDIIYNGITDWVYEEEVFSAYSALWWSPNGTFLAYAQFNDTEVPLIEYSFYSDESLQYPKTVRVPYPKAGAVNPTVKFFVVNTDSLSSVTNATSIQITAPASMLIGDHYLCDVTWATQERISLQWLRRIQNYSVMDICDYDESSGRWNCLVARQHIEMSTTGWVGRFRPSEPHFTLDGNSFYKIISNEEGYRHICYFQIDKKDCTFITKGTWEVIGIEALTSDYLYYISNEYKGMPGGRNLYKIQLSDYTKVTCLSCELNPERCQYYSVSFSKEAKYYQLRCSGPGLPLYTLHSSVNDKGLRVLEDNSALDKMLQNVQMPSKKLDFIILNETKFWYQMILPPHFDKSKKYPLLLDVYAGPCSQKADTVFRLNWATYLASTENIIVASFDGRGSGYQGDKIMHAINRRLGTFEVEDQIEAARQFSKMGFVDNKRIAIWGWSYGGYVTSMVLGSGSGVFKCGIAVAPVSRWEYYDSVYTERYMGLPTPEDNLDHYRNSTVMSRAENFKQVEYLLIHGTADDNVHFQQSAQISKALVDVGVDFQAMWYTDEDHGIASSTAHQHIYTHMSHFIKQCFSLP
Test: DPP4 inhibition, fluorogenic substrate H-Gly-Pro-AMC
Type: biochemical
Parameters: purchased R&D Systems
Settings: recombinant human DPP4
pIC50: −log10 of the molar value.
observable: pIC50

[
  {
    "compound-smiles": "CCOc1ccc(NC2CCN(CC(=O)N3C[C@@H](F)C[C@H]3C#N)CC2)c2cccnc12",
    "test-value": 5.34
  }
]

A: Cc1ccc2nccc(N[C@@H]3CCN(CC(=O)N4C[C@@H](F)C[C@H]4C#N)C3)c2c1
B: N#C[C@@H]1C[C@H](F)CN1C(=O)CN1CCC(Nc2cc(=O)oc3ccccc23)CC1
C: Cc1cnc2cccc(N(C)[C@H]3CCN(CC(=O)N4C[C@@H](F)C[C@H]4C#N)C3)c2c1
Hi! Can you put these in order of pIC50, lowest number first? I would appreciate it if you listed the labels in the requested order.
A, B, C
(A: 4.75, B: 5.47, C: 5.73)

###

Target: Recombinant human FAP (Homo sapiens)
Construct: purchased R&D systems
Sequence (Q12884 whole entry): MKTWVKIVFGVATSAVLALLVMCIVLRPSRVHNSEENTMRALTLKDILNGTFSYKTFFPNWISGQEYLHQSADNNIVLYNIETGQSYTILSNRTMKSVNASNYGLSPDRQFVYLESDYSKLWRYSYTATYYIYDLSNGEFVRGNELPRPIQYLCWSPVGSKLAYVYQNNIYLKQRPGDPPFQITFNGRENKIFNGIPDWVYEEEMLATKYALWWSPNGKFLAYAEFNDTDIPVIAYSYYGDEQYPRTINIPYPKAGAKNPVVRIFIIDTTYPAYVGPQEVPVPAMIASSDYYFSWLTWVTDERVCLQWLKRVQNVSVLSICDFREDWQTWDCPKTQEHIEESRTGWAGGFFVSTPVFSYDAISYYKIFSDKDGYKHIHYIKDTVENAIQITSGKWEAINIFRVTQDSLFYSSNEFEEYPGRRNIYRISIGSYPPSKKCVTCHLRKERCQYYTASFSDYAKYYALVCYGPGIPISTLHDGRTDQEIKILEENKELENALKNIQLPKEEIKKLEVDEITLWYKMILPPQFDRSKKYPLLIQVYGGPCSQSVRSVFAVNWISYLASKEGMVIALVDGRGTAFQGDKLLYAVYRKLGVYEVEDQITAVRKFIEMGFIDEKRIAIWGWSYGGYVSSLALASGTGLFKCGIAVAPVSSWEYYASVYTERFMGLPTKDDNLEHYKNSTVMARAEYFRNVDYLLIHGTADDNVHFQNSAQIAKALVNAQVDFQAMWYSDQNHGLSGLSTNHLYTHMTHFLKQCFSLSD
Experiment: FAP inhibition, fluorogenic substrate Z-Gly-Pro-AMC
Format: biochemical
Settings: recombinant human FAP, substrate Z-Gly-Pro-AMC
observable: IC50 (nM)

[
  {
    "compound-smiles": "N#C[C@@H]1C[C@H](F)CN1C(=O)CN1CCC(Nc2cccc3cnccc23)CC1",
    "observable": "IC50",
    "result-units": "nM",
    "test-value": 5.1
  },
  {
    "compound-smiles": "N#C[C@@H]1C[C@H](F)CN1C(=O)CN1CCC(Oc2cccc3ncc(F)cc23)CC1",
    "observable": "IC50",
    "result-units": "nM",
    "test-value": 2.3
  },
  {
    "compound-smiles": "N#C[C@@H]1CCCN1C(=O)CN1CC[C@H](Nc2cnc3ccccc3c2)C1",
    "observable": "IC50",
    "result-units": "nM",
    "test-value": 16.8
  },
  {
    "compound-smiles": "N#C[C@@H]1CCCN1C(=O)CN1CC[C@@H](Nc2cccc3ncccc23)C1",
    "observable": "IC50",
    "result-units": "nM",
    "test-value": 1.4
  }
]

P: COc1ccc2nccc(O[C@H]3CCN(CC(=O)N4C[C@@H](F)C[C@H]4C#N)C3)c2c1
Q: N#C[C@@H]1CCCN1C(=O)CN1CC[C@H](Nc2ccc(C(F)(F)F)c3ncccc23)C1
R: Cc1ccc(NC2CCN(CC(=O)N3C[C@@H](F)C[C@H]3C#N)CC2)c2cccnc12
Hi! Can you put these in order of IC50, lowest number first? I would appreciate it if you listed the labels in the requested order.
Q, P, R

###

Target: recombinant human PREP (Homo sapiens)
Construct: purchased R&D System
Sequence (P48147 whole entry): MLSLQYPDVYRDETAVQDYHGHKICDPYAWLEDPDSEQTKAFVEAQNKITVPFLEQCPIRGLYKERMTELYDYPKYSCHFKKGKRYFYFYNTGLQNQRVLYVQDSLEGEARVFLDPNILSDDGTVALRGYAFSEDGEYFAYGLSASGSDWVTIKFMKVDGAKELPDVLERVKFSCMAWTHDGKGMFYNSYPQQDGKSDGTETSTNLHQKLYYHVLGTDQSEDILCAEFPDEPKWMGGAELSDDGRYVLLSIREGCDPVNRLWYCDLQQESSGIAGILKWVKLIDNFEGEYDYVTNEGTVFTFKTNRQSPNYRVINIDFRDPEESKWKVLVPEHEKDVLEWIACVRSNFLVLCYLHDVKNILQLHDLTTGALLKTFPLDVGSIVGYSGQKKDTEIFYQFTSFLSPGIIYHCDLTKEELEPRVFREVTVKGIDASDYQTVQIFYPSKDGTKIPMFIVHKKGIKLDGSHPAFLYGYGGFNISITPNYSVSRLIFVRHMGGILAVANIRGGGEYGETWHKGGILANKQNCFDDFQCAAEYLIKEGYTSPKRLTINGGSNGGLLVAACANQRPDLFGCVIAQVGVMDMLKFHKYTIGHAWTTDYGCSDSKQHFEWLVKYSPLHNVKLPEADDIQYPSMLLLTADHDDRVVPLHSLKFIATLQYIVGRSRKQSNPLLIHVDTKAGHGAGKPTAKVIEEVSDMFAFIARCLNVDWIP
Assay: PREP inhibition, fluorogenic substrate Z-Gly-Pro-AMC
Type: biochemical
Conditions: Inhibitory Activity (IC50, nM) PREP, 25° C., Z-Gly-Pro-AMC substrate
observable: IC50 (nM)

[
  {
    "compound-smiles": "N#C[C@@H]1CC(F)(F)CN1C(=O)CN1CC[C@H](Oc2cccc3cnccc23)C1",
    "experimental-system": "recombinant human PREP (Homo sapiens)",
    "test-value": 4310
  }
]

a: N#C[C@@H]1CC(F)(F)CN1C(=O)CN1CC[C@H](Oc2cccc3[nH]c(=O)ccc23)C1
b: COc1ccc(NC2CCN(CC(=O)N3CCC[C@H]3C#N)CC2)c2cccnc12
Of the two listed items, which has the higher IC50? First: a Second: b Give the label of your selection.
b
(b: 28900 nM, a: 3150 nM)
